B1: Far upstream element-binding protein 3, residues 75 to 150; numbered along this chain, Q96I24 (parent)
chain: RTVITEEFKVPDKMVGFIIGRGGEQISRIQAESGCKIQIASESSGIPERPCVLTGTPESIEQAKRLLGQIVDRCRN

variants of: B1; test: abundance fitness (aPCA) (normalised: wild type 0, dead -1); higher = more abundant; growth selection in yeast, the domain comes from the species named; conditions: Homo sapiens
Exercise: for every item that follows, state its recorded abundance fitness.
# output: bare number, no unit

Lab note: `I29A` gave abundance fitness of -0.213

Lab note: `C35R` gave abundance fitness of -0.732

Lab note: `G68V` gave abundance fitness of -0.017

Lab note: `S41I` gave abundance fitness of -0.092

Lab note: `Q30S` gave abundance fitness of -0.051

Lab note: `P50S` gave abundance fitness of -0.046

Lab note: `D12W` gave abundance fitness of -0.255

Lab note: `P11D` gave abundance fitness of -0.061

Lab note: `E24H` gave abundance fitness of 0.059

Lab note: `P57T` gave abundance fitness of 0.006

Lab note: `I39H` gave abundance fitness of -0.44

Lab note: `R73D` gave abundance fitness of 0.047

Lab note: `P50K` gave abundance fitness of -0.029

Lab note: `V71G` gave abundance fitness of -0.105

Lab note: `C74A` gave abundance fitness of 0.02

Lab note: `R73G` gave abundance fitness of 0.054

Lab note: `D72Y` gave abundance fitness of -0.124

Lab note: `E32N` gave abundance fitness of -0.173

Lab note: `E24K` gave abundance fitness of 0.063

Lab note: `R21M` gave abundance fitness of -0.002
